Test system: PRKACA-PRKAR2A interaction (SmBiT-PRKACA / LgBiT-PRKAR2A), protein kinase A
Parameters: NanoLuc complementation counter-screen in cell extract, PRKACA with PRKAR2A, loss of luminescence, detects NanoLuc interference
Settings: counter-screen for NanoLuc interference; 0.5 h, 20 µM; inhibitor
recorded-metric: Inh (PKA) (%)
// units = %; emit number, no label

>  <compound>
CO[C@H]1C[C@@H]2CC[C@@H](C)[C@@](O)(O2)C(=O)C(=O)N2CCCC[C@H]2C(=O)O[C@H]([C@H](C)C[C@@H]2CC[C@@H](O)[C@H](OC)C2)CC(=O)[C@H](C)/C=C(\C)[C@@H](O)[C@@H](OC)C(=O)[C@H](C)C[C@H](C)/C=C/C=C/C=C/1C [UM0141925:01, Rapamycin (Sirolimus)]

>  <unit-abbrev>
%

>  <test-result>
2.249

$$$$
>  <compound>
O=C1CCCC(=O)C1C(=O)c1ccc(C(F)(F)F)cc1[N+](=O)[O-]

>  <unit-abbrev>
%

>  <test-result>
2.396

$$$$
>  <compound>
COC(=O)N[C@H](C(=O)N1CCC[C@H]1c1ncc(-c2ccc(-c3ccc(-c4cnc([C@@H]5CCCN5C(=O)[C@@H](NC(=O)OC)C(C)C)[nH]4)cc3)cc2)[nH]1)C(C)C

>  <unit-abbrev>
%

>  <test-result>
3.854

$$$$
>  <compound>
CCS(=O)(=O)c1cccc(-c2cc(C(=O)NC3CCN(C)CC3)c(C)c3[nH]c4ncc(C)cc4c23)c1

>  <unit-abbrev>
%

>  <test-result>
28.15

$$$$
>  <compound>
C[C@@H]1CN(CC(=O)Nc2ccc3c(c2)Cc2cccc(-c4cc(=O)cc(N5CCOCC5)o4)c2S3)C[C@H](C)O1

>  <unit-abbrev>
%

>  <test-result>
8.664

$$$$
>  <compound>
CNC(=O)c1c(-c2ccc(F)cc2)oc2cc(N(CCO)S(C)(=O)=O)c(C3CC3)cc12

>  <unit-abbrev>
%

>  <test-result>
3.406

$$$$
>  <compound>
C=CC(=O)Nc1ccc2ncnc(Nc3cccc(Br)c3)c2c1

>  <unit-abbrev>
%

>  <test-result>
22.44

$$$$
>  <compound>
COc1ccc(COc2ccc(Cc3cnc(N)nc3N)cc2OC)cc1

>  <unit-abbrev>
%

>  <test-result>
7.237

$$$$

GET /values?readout=Inh (PKA)&item= CCc1c(C(=O)NCCc2ccc(N3CCCCC3)cc2)[nH]c2ccc(Cl)cc12
10.23

Suppose we examine the compound COc1cc(/C=C/C(=O)CC(=O)/C=C/c2ccc(O)c(OC)c2)ccc1O ; what Inh (PKA) value has been reported?
70.09

====

System: PRKACA-PRKAR2A interaction (SmBiT-PRKACA / LgBiT-PRKAR2A), protein kinase A
Design: NanoLuc complementation counter-screen in cell extract, PRKACA with PRKAR2A, loss of luminescence, detects NanoLuc interference
Settings: counter-screen for NanoLuc interference; 0.5 h, 20 µM; inhibitor
Reported Inh (PKA) values for a set of compounds
Kindly provide the numeric value in % only, without the unit symbol.

>  <compound>
O=C(NC[C@H](O)CO)c1ccncc1Nc1ccc(I)cc1F

>  <assayed-target>
PRKACA-PRKAR2A interaction (SmBiT-PRKACA / LgBiT-PRKAR2A), protein kinase A

>  <recorded-metric>
Inh (PKA)

>  <test-result>
20.8

$$$$
>  <compound>
Cc1cc2c(C(=O)NC[C@H](C)c3ccccc3)c(O)c(O)cc2c(O)c1-c1c(C)cc2c(C(=O)NC[C@H](C)c3ccccc3)c(O)c(O)cc2c1O

>  <assayed-target>
PRKACA-PRKAR2A interaction (SmBiT-PRKACA / LgBiT-PRKAR2A), protein kinase A

>  <recorded-metric>
Inh (PKA)

>  <test-result>
12.84

$$$$
>  <compound>
BrC1C(Br)C(Br)C(Br)C(Br)C1Br (centres unmarked)

>  <assayed-target>
PRKACA-PRKAR2A interaction (SmBiT-PRKACA / LgBiT-PRKAR2A), protein kinase A

>  <recorded-metric>
Inh (PKA)

>  <test-result>
6.156

$$$$
>  <compound>
O=C(O)c1ccc(N2C(=O)/C(=C\c3ccc(-c4ccc([N+](=O)[O-])cc4)o3)C=C2c2ccccc2)cc1

>  <assayed-target>
PRKACA-PRKAR2A interaction (SmBiT-PRKACA / LgBiT-PRKAR2A), protein kinase A

>  <recorded-metric>
Inh (PKA)

>  <test-result>
43.25

$$$$
>  <compound>
CC(=O)Nc1ccc(NC(=S)NC(=O)c2ccc(C(C)(C)C)cc2)cc1

>  <assayed-target>
PRKACA-PRKAR2A interaction (SmBiT-PRKACA / LgBiT-PRKAR2A), protein kinase A

>  <recorded-metric>
Inh (PKA)

>  <test-result>
12.95

$$$$
>  <compound>
CN(C)CCCOc1ccc(-c2ccc3ncc4c(c3c2)n(C2CCOCC2)c(=O)n4C)cn1

>  <assayed-target>
PRKACA-PRKAR2A interaction (SmBiT-PRKACA / LgBiT-PRKAR2A), protein kinase A

>  <recorded-metric>
Inh (PKA)

>  <test-result>
-0.519

$$$$
>  <compound>
Cc1cc(-c2ncc(CC(=O)Nc3ccc(-c4cnccn4)cn3)cc2C)ccn1

>  <assayed-target>
PRKACA-PRKAR2A interaction (SmBiT-PRKACA / LgBiT-PRKAR2A), protein kinase A

>  <recorded-metric>
Inh (PKA)

>  <test-result>
0.7443

$$$$
>  <compound>
COc1ccc(S(=O)(=O)Nc2ccccc2CN(C)C/C=C/c2ccc(Cl)cc2)cc1 [UM0141573:01, KN-92 phosphate]

>  <assayed-target>
PRKACA-PRKAR2A interaction (SmBiT-PRKACA / LgBiT-PRKAR2A), protein kinase A

>  <recorded-metric>
Inh (PKA)

>  <test-result>
16.02

$$$$

Record Nc1cccc(-c2cc3c(Oc4cccc(O)c4)ncnc3[nH]2)c1 : what is its Inh (PKA) with PRKACA-PRKAR2A interaction (SmBiT-PRKACA / LgBiT-PRKAR2A), protein kinase A?
24.46

Provide the documented Inh (PKA) with PRKACA-PRKAR2A interaction (SmBiT-PRKACA / LgBiT-PRKAR2A), protein kinase A as the system for N#CCNC(=O)c1ccc(-c2ccnc(Nc3ccc(N4CCOCC4)cc3)n2)cc1
3.804

Given the entry COC1CCN(C(=O)c2cc(Cc3n[nH]c(=O)c4ccccc34)ccc2F)CC1 , what Inh (PKA) was observed with PRKACA-PRKAR2A interaction (SmBiT-PRKACA / LgBiT-PRKAR2A), protein kinase A?
1.514

Item C[C@@H](O)[C@H](NC(=O)c1ccc(C#Cc2ccc(CN3CCOCC3)cc2)cc1)C(=O)NO with PRKACA-PRKAR2A interaction (SmBiT-PRKACA / LgBiT-PRKAR2A), protein kinase A - Inh (PKA)?
2.568

Form: Entry = C=CCc1cccc(/C=N/NC(=O)CN2CCN(Cc3ccccc3)CC2)c1O | System = PRKACA-PRKAR2A interaction (SmBiT-PRKACA / LgBiT-PRKAR2A), protein kinase A | Inh (PKA) = ____
9.934

====

# key: entry, value: Inh (PKA)
Test system: PRKACA-PRKAR2A interaction (SmBiT-PRKACA / LgBiT-PRKAR2A), protein kinase A
Parameters: NanoLuc complementation counter-screen in cell extract, PRKACA with PRKAR2A, loss of luminescence, detects NanoLuc interference
Conditions: counter-screen for NanoLuc interference; 0.5 h, 20 µM; inhibitor
Structures can show the parent of a compound that is named as a salt.
The figure you give is taken to be in %; do not add the unit.

Answered cases to consult:
>  <compound>
O=C(Nc1cccc(Cl)c1)Nc1ncc(CCNc2ncnc3ccsc23)s1 [UM0141718:01, SNS-314 Mesylate]

>  <Inh (PKA) / %>
29.21

$$$$
>  <compound>
C=CC[C@]1(O)CC[C@H]2[C@@H]3CCC4=CC(=O)CCC4=C3C=C[C@@]21C [UM0142281:01, Altrenogest]

>  <Inh (PKA) / %>
7.202

$$$$
>  <compound>
CNC[C@H](O)c1cccc(O)c1 [UM0120096:03, Phenylephrine HCl]

>  <Inh (PKA) / %>
0.7851

$$$$
>  <compound>
Nc1ncn([C@H]2C[C@H](O)[C@@H](CO)O2)c(=O)n1 [UM0128548:04, Decitabine (NSC127716, 5AZA-CdR)]

>  <Inh (PKA) / %>
0.991

$$$$
>  <compound>
O=C(c1ccc(F)c(F)c1Nc1ccc(I)cc1F)N1CC(O)([C@@H]2CCCCN2)C1 [UM0141533:01, Cobimetinib]

>  <Inh (PKA) / %>
6.124

$$$$
>  <compound>
C[C@@H](O)[C@H]1C(=O)N2C(C(=O)[O-])=C(SC3Cn4cnc[n+]4C3)[C@H](C)[C@H]12 (stereo partly shown) [UM0141395:01, Biapenem]

>  <Inh (PKA) / %>
2.946

$$$$

# next compound below
Entry CC[C@H](C)C(=O)O[C@H]1C[C@H](O)C=C2C=C[C@H](C)[C@H](CC[C@@H](O)C[C@@H](O)CC(=O)O)[C@H]21 [UM0141813:01, Pravastatin sodium] : reported Inh (PKA) = ?
0.8236
